Test system: SK-MEL-2
EXPERIMENT: NCI tumour cell line growth inhibition, 48 h
Active and inactive are the calls of the source. No stated cut-off is given here; in the data, active = GI50 up to about 1.1 µM and inactive = higher.
READOUT_NAME: GI50

Would you please look over these solved cases?
MOLECULE | TESTED_ON | GI50
COC(=O)C1=C(C(=O)OC)C2OC1C1C2C2(C)C(C)=C(C)C1(C)[S+]2[O-] (stereo unspecified) | SK-MEL-2 | 10.8 µM (inactive)
NC(=S)N/C=C1\C(=O)Oc2ccccc2C1=O | SK-MEL-2 | 22.6 µM (inactive)
O=c1oc(-c2ccc(O)cc2)cc2cc(O)ccc12 | SK-MEL-2 | 33.3 µM (inactive)
COC1=CCC=C(C[C@@H]2NCCc3cc(OC)c(OC)cc32)C1 | SK-MEL-2 | > 100 µM (inactive)
CCCC(=O)NC(NC1CCCCC1)(C(=O)OCC)C(F)(F)F (stereo unspecified) | SK-MEL-2 | > 100 µM (inactive)

Alright, here's another molecule for you.
get_value(item= c1ccc(N/N=C2\CC(c3ccccc3)Oc3ccccc32)cc1 (stereo unspecified) , readout=GI50) returns 65.3 µM (inactive)

Ref: ChEMBL document CHEMBL1201862
